- method: qHTS assay to identify small molecule agonists of the AP-1 signaling pathway - cell viability counter screen (AID 1159525); note: nearly all actives have a fitted effect of over 55% in size
- experimental conditions: ME-180 (cervical carcinoma) AP-1-bla cells viability, ATP luminescence, 5 h; series mostly up to 76.8 µM
Records with an inconclusive call do not appear. Active and inactive are the calls of the source. Calls come from the whole dose curve.
Outcome codes: active, inactive

{"compound": "CCC(OCCCOC)OC(C)=O (centres undefined)", "class assignment": "inactive"}
{"compound": "CCCCCCC(C)(C)C(=O)O", "class assignment": "inactive"}
{"compound": "CCCCCCCCCI", "class assignment": "inactive"}
{"compound": "COC(=O)CCS", "class assignment": "inactive"}
{"compound": "CC(C)c1nc(CN(C)C(=O)N[C@H](C(=O)N[C@@H](Cc2ccccc2)C[C@H](O)[C@H](Cc2ccccc2)NC(=O)OCc2cncs2)C(C)C)cs1", "class assignment": "active"}
{"compound": "CCCCCCCCOc1ccc(C(=O)O)cc1", "class assignment": "inactive"}
{"compound": "C=C/C(C)=C/C/C=C(\\C)CCC=C(C)C", "class assignment": "inactive"}
{"compound": "CC(C)C=O", "class assignment": "inactive"}
{"compound": "CC1=Nc2ccc3ccccc3c2C1(C)C", "class assignment": "inactive"}
{"compound": "CN1C[C@H](C(=O)N[C@]2(C)O[C@@]3(O)[C@@H]4CCCN4C(=O)[C@H](Cc4ccccc4)N3C2=O)C[C@@H]2c3cccc4[nH]cc(c34)C[C@H]21", "class assignment": "inactive"}
{"compound": "C=C(C)C(=O)OCCCCCCCCCCCCC", "class assignment": "inactive"}
{"compound": "CCOc1ccc(Cc2nccc3cc(OCC)c(OCC)cc23)cc1OCC", "class assignment": "inactive"}
{"compound": "O=C1c2ccccc2C(=O)c2c(O)c(O)cc(O)c21", "class assignment": "inactive"}
{"compound": "C=C(C)CCCC(C)CCO (centres undefined)", "class assignment": "inactive"}
{"compound": "CC(C)=CCC/C(C)=C/CC/C(C)=C/CCC(=O)OC/C=C(\\C)CCC=C(C)C", "class assignment": "inactive"}
{"compound": "CCCCCC[C@@H](O)C/C=C\\CCCCCCCC(=O)O", "class assignment": "inactive"}
{"compound": "C=CC(=O)OCC1CC2CC1C1CCC(COC(=O)C=C)C21 (centres undefined)", "class assignment": "inactive"}
{"compound": "CCCCCC[C@@H](O)C/C=C\\CCCCCCCC(=O)OCC(O)CO (some centres undefined)", "class assignment": "inactive"}
{"compound": "COc1ccc(OC(=O)N(CC(=O)O)Cc2ccc(OCCc3nc(-c4ccccc4)oc3C)cc2)cc1", "class assignment": "inactive"}
{"compound": "NCCNCCO", "class assignment": "inactive"}
{"compound": "CC(=O)Nc1cc(S(=O)(=O)O)cc2cc(S(=O)(=O)O)c(N=Nc3ccccc3)c(O)c12", "class assignment": "inactive"}
{"compound": "O=C1C(=O)c2ccccc2C(O)=C1C1CCC(c2ccc(Cl)cc2)CC1 (centres undefined)", "class assignment": "inactive"}
{"compound": "CCOC(=O)c1ccccc1C(=C1C=C(Br)C(=O)C(Br)=C1)c1cc(Br)c(O)c(Br)c1", "class assignment": "inactive"}
{"compound": "CC1(CN2CCC(n3c(=O)[nH]c4ccccc43)CC2)OCc2ccccc2-n2cccc21 (centres undefined)", "class assignment": "inactive"}
{"compound": "CCCCCCCC/C=C\\CCCCCCCCCCCC(=O)O", "class assignment": "inactive"}
{"compound": "COc1ccccc1N1CCN(CCCCNC(=O)c2ccc(-c3ccc(C(C)=O)cc3)cc2)CC1", "class assignment": "inactive"}
{"compound": "Nc1nnc(-c2ccc([N+](=O)[O-])o2)o1", "class assignment": "inactive"}
{"compound": "NC1[C@H]2CN(c3nc4c(cc3F)c(=O)c(C(=O)O)cn4-c3ccc(F)cc3F)C[C@@H]12 (some centres undefined)", "class assignment": "inactive"}
{"compound": "O=C1NCCN1CCO", "class assignment": "inactive"}
{"compound": "CC(C)Nc1cccnc1N1CCN(C(=O)c2cc3cc(NS(C)(=O)=O)ccc3[nH]2)CC1", "class assignment": "inactive"}
{"compound": "CN1C(=O)N(c2ccccc2Br)Cc2cnc(Nc3ccc4c(c3)OCC(CO)O4)nc21 (centres undefined)", "class assignment": "inactive"}
{"compound": "CN1CCCC(CC2c3ccccc3Sc3ccccc32)C1 (centres undefined)", "class assignment": "inactive"}
{"compound": "CCC1(CO)COCOC1", "class assignment": "inactive"}
{"compound": "N#CCc1ccc(Cl)cc1Cl", "class assignment": "inactive"}
{"compound": "COc1cc(C(=O)NCCCCCC(=O)O)cc(OC)c1OC", "class assignment": "inactive"}
{"compound": "OCCOCC#CCOCCO", "class assignment": "inactive"}
{"compound": "CCOC(=O)/C=C/C(=O)OCC", "class assignment": "inactive"}
{"compound": "CCCCC(CC)COP(=O)(O)O (centres undefined)", "class assignment": "inactive"}
{"compound": "CC(CC1c2ccccc2CCc2ccccc21)CN(C)C (centres undefined)", "class assignment": "inactive"}
{"compound": "CCOC(=O)c1ccc(O)c(O)c1", "class assignment": "inactive"}
{"compound": "O=Cc1c2ccccc2c(Cl)c2ccccc12", "class assignment": "inactive"}
{"compound": "C[C@@H](CN(C)C)CN1c2ccccc2Sc2ccccc21", "class assignment": "inactive"}
{"compound": "C=C(C)C(=O)OCCOCCOC(=O)C(=C)C", "class assignment": "inactive"}
{"compound": "Cc1ccc(OC(=O)c2ccccc2O)cc1", "class assignment": "inactive"}
{"compound": "N#CCCN(CCO)CCO", "class assignment": "inactive"}
{"compound": "C[C@H]1c2cccc(O)c2C(O)=C2C(=O)[C@]3(O)C(O)=C(C(N)=O)C(=O)[C@@H](N(C)C)[C@@H]3[C@@H](O)[C@@H]21", "class assignment": "inactive"}
{"compound": "CC(=O)NC1(c2cccc(F)c2)CCN(CC[C@@]2(c3ccc(Cl)c(Cl)c3)CN(c3ccccc3)C(=O)CO2)CC1", "class assignment": "inactive"}
{"compound": "CC1=C(CC=O)C(C)(C)CCC1", "class assignment": "inactive"}
{"compound": "CCCCN1CCCC1C(=O)Nc1c(C)cc(C)cc1C (centres undefined)", "class assignment": "inactive"}
